Read-out: Interleukin-8 (IL8), CXCL8 (gene 3576)
Measurement protocol: BSK_3C_IL8: BioMAP Diversity Plus: 3C Assay for Interleukin-8 (IL8) Biomarker Activity (AID 2283020)
Measurement context: primary human endothelial cells (HUVEC); actives raise or lower the signal
Calls of active or inactive are those of the source. The calls were made as follows: active = hit-call score of the fitted dose curve at least 0.9, where 1 is the maximum; inactive = score below 0.9.
Readout kind: AC50

                                    compound            result
 0                  CCNC(=O)NC(=O)C(C#N)=NOC          inactive
 1  CCC(C)n1c(=O)[nH]c(C)c(Br)c1=O (configuration not stated)          inactive
 2  Cc1c(COC(=O)[C@@H]2[C@H](/C=C(\Cl)C(F)(F)F)C2(C)C)cccc1-c1ccccc1          inactive
 3                      COc1cc(Cl)c(OC)cc1Cl          inactive
 4  CC(C)=CC1C(C(=O)OCc2coc(Cc3ccccc3)c2)C1(C)C (configuration not stated)  9.03 µM (active)
 5                Nc1cnn(-c2ccccc2)c(=O)c1Cl          inactive
 6                   Cc1cc(C)nc(Nc2ccccc2)n1          inactive
 7  CCCN(CC)CC1COC2(CCC(C(C)(C)C)CC2)O1 (configuration not stated)          inactive
 8  CCCCC(C#N)(Cn1cncn1)c1ccc(Cl)cc1 (configuration not stated)          inactive
 9  CC1(C)C(C=C(Cl)Cl)C1C(=O)OC(C#N)c1cccc(Oc2ccccc2)c1 (configuration not stated)          inactive
10  OC(c1ccc(Cl)cc1)(c1ccc(Cl)cc1)C(Cl)(Cl)Cl  15.3 µM (active)
11        CN/C(=N\[N+](=O)[O-])NCc1cnc(Cl)s1          inactive

* * *

Read-out: Interleukin-8 (IL8), CXCL8 (gene 3576)
Measurement protocol: BSK_CASM3C_IL8: BioMAP Diversity Plus: CASM3C Assay for Interleukin-8 (IL8) Biomarker Activity (AID 2283042);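 also: IL-8 protein level quantified by ELISA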
Measurement context: primary human coronary artery smooth muscle cells; actives raise or lower the signal
Active and inactive are the calls of the source. The calls were made as follows: active = hit-call score of the fitted dose curve at least 0.9, where 1 is the maximum; inactive = score below 0.9.
Outcome codes: active, inactive

In [3]: df
Out[3]:
                                    compound  assigned_class
 0                Nc1cnn(-c2ccccc2)c(=O)c1Cl        inactive
 1  CS(=O)(=O)c1cc(C(F)(F)F)ccc1C(=O)c1cnoc1C1CC1        inactive
 2  CCOc1cc(C(C)(C)C)ccc1C1COC(c2c(F)cccc2F)=N1 (centres undefined)        inactive
 3  CC(C)(C)C(=O)C(Oc1ccc(Cl)cc1)n1cncn1 (centres undefined)        inactive
 4                    CNC(=O)Oc1cccc2ccccc12        inactive
 5  OC(c1ccc(Cl)cc1)(c1ccc(Cl)cc1)C(Cl)(Cl)Cl          active
 6  CCOC(=O)C(C)OC(=O)c1cc(Oc2ccc(C(F)(F)F)cc2Cl)ccc1[N+](=O)[O-] (centres undefined)        inactive
 7                      COc1cc(Cl)c(OC)cc1Cl        inactive
 8  Cc1c(COC(=O)[C@@H]2[C@H](/C=C(\Cl)C(F)(F)F)C2(C)C)cccc1-c1ccccc1        inactive
 9  COCC(C)N(C(=O)CCl)c1c(C)csc1C (centres undefined)        inactive
10  CSC(=O)c1c(C(F)F)nc(C(F)(F)F)c(C(=O)SC)c1CC(C)C        inactive
11  COC(=O)N(C(=O)N1CO[C@@]2(C(=O)OC)Cc3cc(Cl)ccc3C2=N1)c1ccc(OC(F)(F)F)cc1        inactive
12  C=CCOC(=O)C(C)(C)OC(=O)c1cc(-n2c(=O)cc(C(F)(F)F)n(C)c2=O)ccc1Cl        inactive
13                CC1(C)CON(Cc2ccccc2Cl)C1=O        inactive
14  C=C(C)CN(CC)c1c([N+](=O)[O-])cc(C(F)(F)F)cc1[N+](=O)[O-]        inactive
15  COCC(=O)N(c1c(C)cccc1C)C(C)C(=O)OC (centres undefined)        inactive
16                  CCNC(=O)NC(=O)C(C#N)=NOC        inactive
17        COc1ccc(-c2ccccc2)cc1NNC(=O)OC(C)C        inactive
18  CC(C)NC(=O)N1CC(=O)N(c2cc(Cl)cc(Cl)c2)C1=O        inactive
19              COC(=O)NS(=O)(=O)c1ccc(N)cc1        inactive
20     COP(=S)(OC)Oc1ccc([N+](=O)[O-])c(C)c1        inactive
21  CCOc1nc(F)cc2nc(S(=O)(=O)Nc3c(Cl)cccc3Cl)nn12        inactive
22               Clc1nc(Cl)nc(Nc2ccccc2Cl)n1        inactive
23                             O=P(O)(O)CCCl        inactive

* * *

Read-out: Monocyte Chemoattractant Protein-1 (MCP1), CCL2 (gene 6347)
Measurement protocol: BSK_CASM3C_MCP1: BioMAP Diversity Plus: CASM3C Assay for Monocyte Chemoattractant Protein-1 (MCP1) Biomarker Activity (AID 2283046);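 also: MCP-1 level quantified by ELISA 24 h after dosing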
Measurement context: primary human coronary artery smooth muscle cells; actives raise or lower the signal
Active and inactive are the calls of the source. The calls were made as follows: active = hit-call score of the fitted dose curve at least 0.9, where 1 is the maximum; inactive = score below 0.9.
Readout kind: AC50

>>> df
                                    compound            result
 0            COP(=O)(OC)O/C(C)=C/C(=O)N(C)C          inactive
 1  CCCC(=NOCC)C1=C(O)CC(CC(C)SCC)CC1=O (stereo not drawn)          inactive
 2  CCC(C)n1c(=O)[nH]c(C)c(Br)c1=O (stereo not drawn)          inactive
 3     CC(C)N1C(=O)N(c2ccccc2)CSC1=NC(C)(C)C          inactive
 4                   CCOc1nc(C(Cl)(Cl)Cl)ns1          inactive
 5           CCCCOCN(C(=O)CCl)c1c(CC)cccc1CC  33.2 µM (active)
 6  CCCN(CC)CC1COC2(CCC(C(C)(C)C)CC2)O1 (stereo not drawn)          inactive
 7  OC(c1ccc(Cl)cc1)(c1ccc(Cl)cc1)C(Cl)(Cl)Cl  35.2 µM (active)
 8         N#Cc1c[nH]cc1-c1cccc2c1OC(F)(F)O2          inactive
 9             COP(=S)(OC)SCn1nnc2ccccc2c1=O          inactive
10                  CCNC(=O)NC(=O)C(C#N)=NOC  1.98 µM (active)
11  CCCCC(C#N)(Cn1cncn1)c1ccc(Cl)cc1 (stereo not drawn)          inactive
12                         CCSC(=O)N1CCCCCC1          inactive

* * *

Measurement protocol: CCTE_Mundy_HCI_Cortical_NOG_NeuriteLength: CCTE's Neurite Outgrowth Assay in rat cortical cells for Neurite Length, Mundy Lab (AID 2284213)
Activity calls are given as the source filed them. Rule for the calls: active = hit-call score of the fitted dose curve at least 0.9, where 1 is the maximum; inactive = score below 0.9.
Outcome codes: Yes (active), No (inactive)

>>> print(df.to_string())
                                    compound  assigned_class
 0  CC(C)(C)C(=O)C(Oc1ccc(Cl)cc1)n1cncn1 (configuration not stated)              No
 1  Cc1c(COC(=O)[C@@H]2[C@H](/C=C(\Cl)C(F)(F)F)C2(C)C)cccc1-c1ccccc1             Yes
 2     O=C(Nc1ccccc1-c1ccc(Cl)cc1)c1cccnc1Cl              No
 3  CS(=O)(=O)c1ccc(C(=O)C2C(=O)CCCC2=O)c([N+](=O)[O-])c1              No
 4             COP(=S)(OC)SCn1nnc2ccccc2c1=O              No
 5                         CCSC(=O)N1CCCCCC1              No
 6  CC1(C)C(C=C(Cl)Cl)C1C(=O)OC(C#N)c1cccc(Oc2ccccc2)c1 (configuration not stated)              No
 7          CCOP(=O)(OCC)Oc1nc(Cl)c(Cl)cc1Cl              No
 8          CCN(CC)c1nc(C)cc(OP(=S)(OC)OC)n1             Yes
 9  C=C(C)CN(CC)c1c([N+](=O)[O-])cc(C(F)(F)F)cc1[N+](=O)[O-]             Yes
10  CS(=O)(=O)c1cc(C(F)(F)F)ccc1C(=O)c1cnoc1C1CC1              No
11        CN/C(=N\[N+](=O)[O-])NCc1cnc(Cl)s1              No
